Examples of compounds with documented viability, T/C follow.
System: 276233-004-R-J1-PDC complex spheroid viability;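 also: spheroids exposed to drugs for seven days; 100% = DMSO vehicle control viability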
EXPERIMENTAL_PROTOCOL: Anticancer human tumor 276233-004-R-J1-PDC patient-derived colon adenocarcinoma cell line growth inhibition [GQUAD]
CONDITION_LABEL: second compound 0.0316 µM; first compound 10 µM; active compounds read low

>  <COMPOUND>
C=CC(=O)N1CCN(c2nc(=O)n(-c3c(C)ccnc3C(C)C)c3nc(-c4c(O)cccc4F)c(F)cc23)C(C)C1 (stereo not given) + Cc1[nH]c2ccc(F)cc2c1-c1nc2c3cccnc3c3ncccc3c2[nH]1

>  <MEASURED_ON>
276233-004-R-J1-PDC complex spheroid viability;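 also: spheroids exposed to drugs for seven days; 100% = DMSO vehicle control viability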

>  <UNIT_ANNOTATION>
%

>  <viability, T/C>
88.5

$$$$
>  <COMPOUND>
CCCS(=O)(=O)Nc1ccc(F)c(C(=O)c2c[nH]c3ncc(-c4ccc(Cl)cc4)cc23)c1F + Cc1[nH]c2ccc(F)cc2c1-c1nc2c3cccnc3c3ncccc3c2[nH]1

>  <MEASURED_ON>
276233-004-R-J1-PDC complex spheroid viability;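 also: spheroids exposed to drugs for seven days; 100% = DMSO vehicle control viability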

>  <UNIT_ANNOTATION>
%

>  <viability, T/C>
50.8

$$$$
>  <COMPOUND>
CC1COCCN1c1cc(C2(O)CC3CCC(C2)O3)c2cnn(-c3ccn[nH]3)c2n1 (stereo not given) + Cc1[nH]c2ccc(F)cc2c1-c1nc2c3cccnc3c3ncccc3c2[nH]1

>  <MEASURED_ON>
276233-004-R-J1-PDC complex spheroid viability;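 also: spheroids exposed to drugs for seven days; 100% = DMSO vehicle control viability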

>  <UNIT_ANNOTATION>
%

>  <viability, T/C>
51

$$$$
>  <COMPOUND>
Nc1ccn(C2OC(CO)C(O)C2(F)F)c(=O)n1 (stereo not given) + Cc1cnc(CNC(=O)c2c(=O)c3ccc(N4CCCN(C)CC4)nc3n3c2sc2ccccc23)cn1

>  <MEASURED_ON>
276233-004-R-J1-PDC complex spheroid viability;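 also: spheroids exposed to drugs for seven days; 100% = DMSO vehicle control viability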

>  <UNIT_ANNOTATION>
%

>  <viability, T/C>
72.6

$$$$
>  <COMPOUND>
C=CCn1c(=O)c2cnc(Nc3ccc(N4CCN(C)CC4)cc3)nc2n1-c1cccc(C(C)(C)O)n1 + Cc1cnc(CNC(=O)c2c(=O)c3ccc(N4CCCN(C)CC4)nc3n3c2sc2ccccc23)cn1

>  <MEASURED_ON>
276233-004-R-J1-PDC complex spheroid viability;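 also: spheroids exposed to drugs for seven days; 100% = DMSO vehicle control viability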

>  <UNIT_ANNOTATION>
%

>  <viability, T/C>
78

$$$$
>  <COMPOUND>
C=CCn1c(=O)c2cnc(Nc3ccc(N4CCN(C)CC4)cc3)nc2n1-c1cccc(C(C)(C)O)n1 + Cc1[nH]c2ccc(F)cc2c1-c1nc2c3cccnc3c3ncccc3c2[nH]1

>  <MEASURED_ON>
276233-004-R-J1-PDC complex spheroid viability;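 also: spheroids exposed to drugs for seven days; 100% = DMSO vehicle control viability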

>  <UNIT_ANNOTATION>
%

>  <viability, T/C>
66.6

$$$$
>  <COMPOUND>
CCCS(=O)(=O)Nc1ccc(F)c(C(=O)c2c[nH]c3ncc(-c4ccc(Cl)cc4)cc23)c1F + CN(C)c1ccc(Nc2c3ccc(NC(=O)CCN4CCCC4)cc3nc3cc(NC(=O)CCN4CCCC4)ccc23)cc1

>  <MEASURED_ON>
276233-004-R-J1-PDC complex spheroid viability;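 also: spheroids exposed to drugs for seven days; 100% = DMSO vehicle control viability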

>  <UNIT_ANNOTATION>
%

>  <viability, T/C>
65.2

$$$$
>  <COMPOUND>
CC(=O)O[C@H]1C(=O)[C@@]2(C)[C@H]([C@H](OC(=O)c3ccccc3)[C@]3(O)C[C@H](OC(=O)[C@H](O)[C@@H](NC(=O)c4ccccc4)c4ccccc4)C(C)=C1C3(C)C)[C@]1(OC(C)=O)CO[C@@H]1C[C@@H]2O + CN(C)c1ccc(Nc2c3ccc(NC(=O)CCN4CCCC4)cc3nc3cc(NC(=O)CCN4CCCC4)ccc23)cc1

>  <MEASURED_ON>
276233-004-R-J1-PDC complex spheroid viability;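 also: spheroids exposed to drugs for seven days; 100% = DMSO vehicle control viability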

>  <UNIT_ANNOTATION>
%

>  <viability, T/C>
80.6

$$$$
>  <COMPOUND>
CCCS(=O)(=O)Nc1ccc(F)c(C(=O)c2c[nH]c3ncc(-c4ccc(Cl)cc4)cc23)c1F + Cc1cnc(CNC(=O)c2c(=O)c3ccc(N4CCCN(C)CC4)nc3n3c2sc2ccccc23)cn1

>  <MEASURED_ON>
276233-004-R-J1-PDC complex spheroid viability;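 also: spheroids exposed to drugs for seven days; 100% = DMSO vehicle control viability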

>  <UNIT_ANNOTATION>
%

>  <viability, T/C>
75.7

$$$$
>  <COMPOUND>
CC(C)n1c(=O)n(C)c2cnc3cc(F)c(-c4ccc(OCCCN5CCCCC5)nc4)cc3c21 + CN(C)c1ccc(Nc2c3ccc(NC(=O)CCN4CCCC4)cc3nc3cc(NC(=O)CCN4CCCC4)ccc23)cc1

>  <MEASURED_ON>
276233-004-R-J1-PDC complex spheroid viability;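 also: spheroids exposed to drugs for seven days; 100% = DMSO vehicle control viability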

>  <UNIT_ANNOTATION>
%

>  <viability, T/C>
53.1

$$$$
